# target under test: PTP1B (Homo sapiens, UniProt P18031)
# Sequence (P18031 1-435): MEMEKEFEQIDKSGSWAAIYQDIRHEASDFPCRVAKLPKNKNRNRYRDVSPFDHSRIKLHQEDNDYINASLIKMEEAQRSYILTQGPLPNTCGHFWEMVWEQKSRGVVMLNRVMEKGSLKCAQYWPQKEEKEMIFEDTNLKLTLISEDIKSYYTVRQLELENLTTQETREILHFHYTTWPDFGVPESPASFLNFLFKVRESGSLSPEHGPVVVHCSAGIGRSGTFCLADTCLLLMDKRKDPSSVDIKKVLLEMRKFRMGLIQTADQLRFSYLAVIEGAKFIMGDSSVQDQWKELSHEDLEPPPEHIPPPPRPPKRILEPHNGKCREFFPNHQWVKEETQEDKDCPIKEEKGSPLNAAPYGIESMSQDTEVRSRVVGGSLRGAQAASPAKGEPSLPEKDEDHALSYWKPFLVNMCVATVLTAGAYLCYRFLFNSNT
pIC50: −log10 of the molar value.
readout label: pIC50

compound: COC(=O)C1(c2ccc(OCc3ccccc3)cc2)OC(=O)C(O)=C1c1ccc(O)cc1 (stereo not shown)
numeric result: 4.54

Hello, the source for this data is paper PMC7690921, in case you need it.
